Data credit: patent US10434083B2

Assay: in vivo
Set-up: species or system swine
Conditions: both sexes, pig, im
measurement label: half-life

1. CC1(C)OC(=O)C(OCC2CC2)=C1c1ccc(S(C)(=O)=O)cc1 ... 30.9 to 48.7 h

---

Assay: in vivo
Parameters: species or system swine
Details: both sexes, pig, im, 1.5 mg/kg
measurement label: Cmax (ng/mL)

1) CC1(C)OC(=O)C(OCC2CC2)=C1c1ccc(S(C)(=O)=O)cc1 ... 53.3

---

Experiment: Firocoxib pharmacokinetics in sows following IM administration (Example 2)
Type: in vivo, swine
Conditions: female, Yorkshire×Landrace, pig, plasma, im, 2 mg/kg, sow dose 2.0 mg/kg (Table 7); read-out: Sow AUClast
measurement label: AUC(0-t)

1) CC1(C)OC(=O)C(OCC2CC2)=C1c1ccc(S(C)(=O)=O)cc1 ... 12700 ng·h/mL

---

Test: in vivo
Design: species or system swine
Conditions: both sexes, pig, im, 2 mg/kg, AUClast
measurement label: AUC(0-t) (µg·h/mL)

1. CC1(C)OC(=O)C(OCC2CC2)=C1c1ccc(S(C)(=O)=O)cc1 ... 3.22

---

Assay: in vivo
Design: species or system swine
Settings: both sexes, pig, im, 1.5 mg/kg, AUC0-last
measurement label: AUC(0-t) (ng·h/mL)

1) CC1(C)OC(=O)C(OCC2CC2)=C1c1ccc(S(C)(=O)=O)cc1 [firocoxib] ... 3900

---

Test: Firocoxib pharmacokinetics in sows following IM administration (Example 2)
Assay type: in vivo, swine
Details: female, Yorkshire×Landrace, pig, plasma, im, 1 mg/kg, sows, 1.0 mg/kg IM, mean; read-out: AUCINF
measurement label: AUC(0-inf)

1. CC1(C)OC(=O)C(OCC2CC2)=C1c1ccc(S(C)(=O)=O)cc1 [firocoxib] ... 5620 ng·h/mL

---

Assay: Firocoxib pharmacokinetics in sows following IM administration (Example 2)
Type: in vivo, swine
Conditions: female, Yorkshire×Landrace, pig, plasma, im, 2 mg/kg, sows, 2.0 mg/kg IM, mean; read-out: AUC0-last
measurement label: AUC(0-t) (ng·h/mL)

1. CC1(C)OC(=O)C(OCC2CC2)=C1c1ccc(S(C)(=O)=O)cc1 [firocoxib] ... 12700

---

Test: Firocoxib pharmacokinetics in sows following IM administration (Example 2)
Type: in vivo, swine
Conditions: female, Yorkshire×Landrace, pig, plasma, im, 1 mg/kg, sow dose 1.0 mg/kg (Table 7); read-out: Sow AUClast
measurement label: AUC(0-t)

1. CC1(C)OC(=O)C(OCC2CC2)=C1c1ccc(S(C)(=O)=O)cc1 ... 5330 ng·h/mL

---

Assay: Firocoxib pharmacokinetics in sows following IM administration (Example 2)
Assay type: in vivo, swine
Conditions: female, Yorkshire×Landrace, pig, plasma, im, 1.5 mg/kg, sow dose 1.5 mg/kg (Table 7); read-out: Sow AUC∞
measurement label: AUC(0-inf) (ng·h/mL)

1. CC1(C)OC(=O)C(OCC2CC2)=C1c1ccc(S(C)(=O)=O)cc1 ... 8660

---

Test: in vivo
Design: species or system swine
Conditions: both sexes, pig, im, 1.5 mg/kg
measurement label: Tmax (h)

1. CC1(C)OC(=O)C(OCC2CC2)=C1c1ccc(S(C)(=O)=O)cc1 ... 24

---

Assay: in vivo
Parameters: species or system swine
Settings: both sexes, pig, im, 0.5 mg/kg, AUC0-24h
measurement label: AUC(0-t)

1. CC1(C)OC(=O)C(OCC2CC2)=C1c1ccc(S(C)(=O)=O)cc1 ... 176 ng·h/mL

---

Assay: Firocoxib pharmacokinetics in sows following IM administration (Example 2)
Format: in vivo, swine
Conditions: female, Yorkshire×Landrace, pig, plasma; sows, 1.0 mg/kg IM, mean; read-out: MRT0-last
measurement label: MRT last (h)

1. CC1(C)OC(=O)C(OCC2CC2)=C1c1ccc(S(C)(=O)=O)cc1 [firocoxib] ... 29.4

---

Assay: Firocoxib pharmacokinetics in sows following IM administration (Example 2)
Format: in vivo, swine
Conditions: female, Yorkshire×Landrace, pig, plasma; sows, 2.0 mg/kg IM, mean
measurement label: CL/F (mL/min/kg)

1. CC1(C)OC(=O)C(OCC2CC2)=C1c1ccc(S(C)(=O)=O)cc1 ... 3

---

Experiment: in vivo
Design: species or system swine
Details: both sexes, pig, im, 2 mg/kg, MRT0-last
measurement label: MRT last (h)

1) CC1(C)OC(=O)C(OCC2CC2)=C1c1ccc(S(C)(=O)=O)cc1 ... 51.5

---

Assay: Firocoxib pharmacokinetics in sows following IM administration (Example 2)
Format: in vivo, swine
Conditions: female, Yorkshire×Landrace, pig, plasma; sows, 1.5 mg/kg IM, mean
measurement label: Cmax (ng/mL)

1) CC1(C)OC(=O)C(OCC2CC2)=C1c1ccc(S(C)(=O)=O)cc1 ... 344

---

Test: Firocoxib pharmacokinetics in sows following IM administration (Example 2)
Format: in vivo, swine
Settings: female, Yorkshire×Landrace, pig, plasma, im, 0.5 mg/kg, sows, 0.5 mg/kg IM, mean; read-out: AUC0-24h
Procedure: Protocols involved intramuscular injection of Firocoxib to lactating sows at either 0.5, 1.0, 1.5 or 2 mg/kg, and analysis in sows and select piglets at 21 days post treatment. […] A sample size of 4 sows was selected to describe the pharmacokinetics of firocoxib. […] In cases where the calculated dose volume exceeded 20-mL, the remaining volume was administered via IM injection in the left lateral neck muscle. […]
measurement label: AUC(0-t)

1) CC1(C)OC(=O)C(OCC2CC2)=C1c1ccc(S(C)(=O)=O)cc1 ... 1030 ng·h/mL

---

Assay: Firocoxib pharmacokinetics in sows following IM administration (Example 2)
Type: in vivo, swine
Details: female, Yorkshire×Landrace, pig, plasma; sows, 1.0 mg/kg IM, mean
measurement label: CL/F (mL/min/kg)

1. CC1(C)OC(=O)C(OCC2CC2)=C1c1ccc(S(C)(=O)=O)cc1 [firocoxib] ... 3.5

---

Assay: Pharmacokinetics of firocoxib in a single sow after IM injection (Example 1)
Type: in vivo, swine
Conditions: female, crossbred, pig, plasma, 1.5 mg/kg IM
Description: The objective of this study was to characterize the pharmacokinetic profile and transmammary delivery of firocoxib in a single sow and her litter when administered via injection to provide analgesia to piglets via the milk prior to routine piglet processing procedures. […] Plasma concentrations of firocoxib were measured with high-pressure liquid chromatography-tandem mass spectrometry (Shimadzu Prominence, Shimadzu Scientific Instruments, Columbia, Md., USA). […]
measurement label: half-life (h)

1) CC1(C)OC(=O)C(OCC2CC2)=C1c1ccc(S(C)(=O)=O)cc1 ... 27.5

---

Assay: Pharmacokinetics of firocoxib in a single sow after IM injection (Example 1)
Assay type: in vivo, swine
Details: female, crossbred, swine, plasma, 1.5 mg/kg IM
measurement label: Cmax

1. CC1(C)OC(=O)C(OCC2CC2)=C1c1ccc(S(C)(=O)=O)cc1 ... 287 ng/mL

---

Assay: Firocoxib pharmacokinetics in sows following IM administration (Example 2)
Format: in vivo, swine
Settings: female, Yorkshire×Landrace, pig, plasma; sows, 0.5 mg/kg IM, mean
Experimental: Protocols involved intramuscular injection of Firocoxib to lactating sows at either 0.5, 1.0, 1.5 or 2 mg/kg, and analysis in sows and select piglets at 21 days post treatment. […] A sample size of 4 sows was selected to describe the pharmacokinetics of firocoxib. […] In cases where the calculated dose volume exceeded 20-mL, the remaining volume was administered via IM injection in the left lateral neck muscle. […]
measurement label: CL/F

1) CC1(C)OC(=O)C(OCC2CC2)=C1c1ccc(S(C)(=O)=O)cc1 ... 5.5 mL/min/kg

---

Experiment: in vivo
Set-up: species or system swine
Conditions: both sexes, pig, im, 1.5 mg/kg, MRT0-last
measurement label: MRT last (h)

1. CC1(C)OC(=O)C(OCC2CC2)=C1c1ccc(S(C)(=O)=O)cc1 ... 54.4

---

Assay: Firocoxib pharmacokinetics in sows following IM administration (Example 2)
Assay type: in vivo, swine
Settings: female, Yorkshire×Landrace, pig, plasma, im, 1 mg/kg, sows, 1.0 mg/kg IM, mean; read-out: AUC0-last
measurement label: AUC(0-t)

1) CC1(C)OC(=O)C(OCC2CC2)=C1c1ccc(S(C)(=O)=O)cc1 ... 5330 ng·h/mL

---

Experiment: in vivo
Set-up: species or system swine
Settings: both sexes, pig, im, 0.5 mg/kg
measurement label: Tmax (h)

1. CC1(C)OC(=O)C(OCC2CC2)=C1c1ccc(S(C)(=O)=O)cc1 ... 24

---

Assay: Firocoxib pharmacokinetics in sows following IM administration (Example 2)
Type: in vivo, swine
Settings: female, Yorkshire×Landrace, swine, plasma; sows, 0.5-2.0 mg/kg IM; read-out: plasma elimination half-life (T1/2λz), range over dose groups
measurement label: half-life

1. CC1(C)OC(=O)C(OCC2CC2)=C1c1ccc(S(C)(=O)=O)cc1 [firocoxib] ... 26.7 to 31.1 h
